# System: U251 MG/hEGFRvIII cells
# experiment: In vitro cytotoxicity (nuclear counts after 6-day treatment), mono-culture
# Assay type: cell-based, human
# conditions: Homo sapiens, U-251, 144 h
pIC50: −log10 of the molar value.

| smiles-str | pIC50 |
| --- | --- |
| COc1cc2c(cc1OCCCCCOc1cc3c(cc1OC)C(=O)N1C=C(C)C[C@H]1C=N3)N=C[C@@H]1CC(C)=CN1C2=O | 11.00 |
